Cited source for all entries: patent US20210253725A1

Collected Cellular binding assay [RFU] values appear next to each entry.
# tgt: T1, CD134 expressed on the cell surface of HT1080_OX40 cells (human, UniProt P43489 29-277)
# T1 construct: whole, on cells; species not restated for the HT1080 transfectant
# T1 sequence (looked up): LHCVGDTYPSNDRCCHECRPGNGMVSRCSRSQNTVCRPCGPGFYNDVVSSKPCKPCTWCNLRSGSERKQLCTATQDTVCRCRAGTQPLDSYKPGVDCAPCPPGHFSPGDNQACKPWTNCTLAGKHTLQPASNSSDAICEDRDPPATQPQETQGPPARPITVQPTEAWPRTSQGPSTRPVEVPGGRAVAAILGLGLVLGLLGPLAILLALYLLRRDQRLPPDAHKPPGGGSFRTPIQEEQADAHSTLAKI
# experiment-description: HT1080_OX40 cells, imaging; further: test concentration or dose not given here
Form field: result (number plus unit)

Recorded Cellular binding assay [RFU], per entry:
• P018.S.12.A.B02 (antibody, V domains shown, V regions on human Ig constant parts; also called AB134_57) VH: QSLEESGGRLVTPGTPLTLTCTVSGIDLSKYTMTWVRQAPGKGLEWIGLISFGGRGGTWYANWAKGRFTISKTSTTVDLRIASPTTEDTATYFCARARYSGTNYDYFNLWGQGTLVTVSS VL: AYDMTQTPASVEVAVGGTVTIKCQASQSISNWLAWYQQKPGQRPKLLIYGASNLESGVPSRFKGSGSGTDFTLTISDLESADAATYYCQQGYSSDGVTNAFGGGTEVVVE = 560 RFU
• P018.S.12.A.D05 (antibody, V domains shown, V regions on human Ig constant parts; also called AB134_70) VH: QEQLKESGGGVVTPGGTLTLTCTASAFSLNHYNIQWVRQAPGKGLEWIGWILTDGTEYYANWAKGRFTISKTSTTVDLKIASPTTEDTATYFCAREGDWGVDSLWGPGTLVTVSS VL: ALVMTQTPSPVSAAVGGTVTISCQSSQSVDNNDFLSWYQQKPGQPPKLLIYLASKLASGVPSRFSGSGSGTQFTLTISGVQSDDAATYYCKGLYFDSGWYAAFGGGTEVVVE = 451 RFU

Problem: State the recorded Cellular binding assay [RFU] for this entry: P018.S.11.A.F04 (antibody, V domains shown, V regions on human Ig constant parts; also called AB134_40) VH: QSVEESGGRLVTPGTPLTLTCTVSGFSLSRYTMGWVRQAPGKGLEYIGIIYGDDNTYYASWAKGRLTISKTSSTTVDLKITSPTTEDTATYFCASCAPIYYNTFSFNLWGQGTLVTVSA VL: AYDMTQTPASVEVAVGGTVTIKCQASQTIGGSLSWYQQKPGQPPKLLIYAAATLASGVPSRFKGSGSGTQFTLTISGVESDDAATYYCQQHYTGDNVNNPFGGGTEVVVK
Result: 486 RFU

Problem: Another binder: P018.S.12.A.C01 (antibody, V domains shown, V regions on human Ig constant parts; also called AB134_61) VH: QEQLKESGGGLVTPGGTLTLTCTASGFTFSSHAMGWVRQAPGKGLEWIGKIYDDGTTFYANWAKGRFTISRTSTTVDLKMTSLTTEDTATYFCLRGYNSGFNFWGQGTLVTVSS VL: AQVLTQTPASVSAAVGGTVTISCQSSESVYNNNFLAWYQQKPGQPPKLLIYLASTLASGVPSRFSGSGSGTEFTLTISDLDSDDAATYYCAGGYDDNVYGFGGGTEVVVK
Result: 496 RFU

Problem: Another binder: P018.S.12.A.H04 (antibody, V domains shown, V regions on human Ig constant parts; also called AB134_90) VH: QSVEESGGRLVTPGTPLTLTCTASGFSLSDYYMSWVRQAPGKGLEWIGFMNSGGNAYYASWASGRFTISKTSTTVDLKITSPTTEDTATYFCVRDLSRFSLWGRGTLVIVSS VL: AAVLTQTPSPVSAAVGGTVTINCQASPSVYSDYLSWFQQKPGQAPKLLIYWASTLTSGVPSRFSGSGSGTQFTLTISDVQSDDAATYYCAGGYSGNSDVWAFGGGTEVVVK
Result: 295 RFU

Problem: What do we get for P018.S.03.A.E03 (antibody, V domains shown, V regions on human Ig constant parts; also called AB134_4) VH: QSVEESGGRLVTPGTPLTLTCTVSGFSLSTYGMSWVRQAPGKGLEWIGIIDAGDSPYYASWVKGRFTISKTSTTVDLKITSLTTEDTATYFCARIAGSNHGPFSLWGPGTLVTVSS VL: DVVMTQTPASVSEPVGGTVTINCQASEFISNYLAWYQQKPGQPPKLLIYGASTLASGVPSRFSGSGSGTQFTLTISDLESDDAATYYCQCTAYGSGYVGFGGGTEVVVK ?
Result: 419 RFU

Problem: How about this binder: P018.S.12.A.F03 (antibody, V domains shown, V regions on human Ig constant parts; also called AB134_79) VH: QSLEESGGRLVAPGTPLTLTCTVSGIDLSRYAMGWVRQAPGKGLEYIGIIDDNDITYFATWAKGRFTISKTSTTLGLKITSPTTEDTATYFCARTADYADYSFGLWGPGTLVTVSS VL: DVVMTQTPTSVSEPVGGTVTIKCQASENIGNYLAWYQQRPGQRPKLLIYAASNLASGVPSRFKGSGSGTEYALTISDLESDDAATYYCQCTYDDSEYFVFGGGTEVVVK
Result: 485 RFU

Problem: One more binder: P018.S.04.A.E06 (antibody, V domains shown, V regions on human Ig constant parts; also called AB134_11) VH: QSVEESGGRLVTPGTPLTLTCTVSGFSLSGYDMSWVRQAPGKGLEWIGYIYAGSTYYANWAKGRFTISKTSTTVDLKMTSPTTEDTATYFCTRVGAGYSGVWAYFNLWGPGTLVTVSS VL: AQVLTQTPSSVSAAVGGTVTINCQSSQSVDSDNYLAWYQQKPGQPPKLLIYDASKLASGVPSRFTGSGSGTQFTLTISGVQSDDAATYYCQGTYGNIGWYFAFGGGTEVVVK
Result: 140 RFU

Problem: Field entry: P018.S.12.A.C03 (antibody, V domains shown, V regions on human Ig constant parts; also called AB134_63) VH: QEQLKESGGDLVTPGTPLTLTCTVSGFSLSSYAMAWVRQAPGKGLEYIGFIDTDGSAYYASWAKGRFTISRTSTTVDLKITSPTTEDTATYFCAGDSYGYAGFVYFNLWGPGTLVTVSS VL: DVVMTQTPASVSEPVGGTVTIKCQASQNIYSSLAWYQQKPGQPPKLLIYDASDLASGVPSRFKGSGSGTQFTLTISDLESDDAATYYCQCSYYGVDYVGGFGGGTEVVVK
Result: 483 RFU

Problem: Try this binder too: P018.S.12.A.C06 (antibody, V domains shown, V regions on human Ig constant parts; also called AB134_66) VH: QSVEESGGRLVKPDETLTLICTVSGIDLSINVVGWVRQAPGEGLEWIGDISSHGDTIYATWAKGRFTISKTSTTVDLKMTSLTASDTATYFCARYVGDGYYDLWGPGTLVTVSS VL: AYDMTQTPASVSAAVGGTVTINCQASQSISNLLAWYQQKPGQRPKLLIYDTSKLASGVPSRFKGSGSGTQFTLTISDLESADAATYYCQQSYSSSNIANLFGGGTEVVVK
Result: 525 RFU
